- Tested on: KG-1a
- ASSAY_EXPLANATION: Down regulation of WT1 protein levels in human KG1a cells after 48 hrs by Western blot analysis relative to control
- Type: functional
OUTCOME_MEASURE: Activity

smiles_repr=CC(C)=C1C[C@@H]2O[C@@]2(C)CC/C=C(\C)CC1=O val=92.22%
smiles_repr=CC(C)=C1C[C@H]2[C@@H](CC[C@]2(C)O)[C@](C)(O)CC1=O val=95.52%
smiles_repr=C/C1=C\Cc2c(C)coc2C/C(C)=C/CC1 val=58.08%
smiles_repr=CC(C)=C1CC(=O)[C@@H](C)CC/C=C(\C)CC1=O val=44.3%
